# Assay comment: Induction of insulin-sensitizing activity in insulin-resistant human HepG2 cells assessed as glucose consumption at 0.1 uM (reference value: 5.83 +/-0.101 mM)
# Assay type: functional
Outcome measure: Activity (mM)
Give the quantity in mM, number only.

Inquiry: If you can, please state the reported Activity value of `CCc1ccc(-c2cccc(C(=O)Cc3c(CC=C(C)C)c(OC)cc(O)c3C(=O)O)c2)cc1` .
Reply text: 8.202

Inquiry: Recorded Activity for `COc1cc(O)c(C(=O)O)c(CC(=O)c2ccccc2)c1CC=C(C)C` , please?
Reply text: 6.729

Inquiry: Given `COc1cc(O)c(C(=O)O)c(CC(=O)c2cccc(-c3ccc(C)cc3)c2)c1CC=C(C)C` , state its recorded Activity.
Reply text: 7.492

----------
# Measured target: Peroxisome proliferator-activated receptor gamma (Homo sapiens) (UniProt P37231)
# Sequence (P37231 whole entry): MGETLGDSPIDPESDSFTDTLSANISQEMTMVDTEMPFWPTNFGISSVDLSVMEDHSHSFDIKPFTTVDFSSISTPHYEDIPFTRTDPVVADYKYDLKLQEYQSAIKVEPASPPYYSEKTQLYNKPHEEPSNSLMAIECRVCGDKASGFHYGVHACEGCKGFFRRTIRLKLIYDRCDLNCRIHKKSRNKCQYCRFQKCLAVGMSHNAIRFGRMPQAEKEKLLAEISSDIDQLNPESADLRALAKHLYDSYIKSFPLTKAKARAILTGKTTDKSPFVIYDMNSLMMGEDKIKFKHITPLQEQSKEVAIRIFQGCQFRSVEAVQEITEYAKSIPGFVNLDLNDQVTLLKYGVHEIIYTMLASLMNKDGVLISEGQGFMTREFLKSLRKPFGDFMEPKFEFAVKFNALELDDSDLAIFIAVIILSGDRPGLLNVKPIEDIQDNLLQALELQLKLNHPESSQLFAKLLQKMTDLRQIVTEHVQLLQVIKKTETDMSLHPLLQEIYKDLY
# Assay comment: Antagonist activity at PPAR-gamma (unknown origin) transfected in human HEK293 cells assessed as decrease in rosiglitazone-induced receptor transactivation at 1 uM by dual-luciferase reporter gene assay relative to control
# Assay type: cell-based
Outcome measure: inhibition (%)
Unit % implied. Number only.

Entry smiles | inhibition [%]
COc1cc(CC(=O)c2cccc(-c3cccc(C(F)(F)F)c3)c2)c(C(=O)O)c(O)c1CC=C(C)C | -6.1
COc1cc(O)c(C(=O)O)c(CC(=O)c2ccccc2)c1CC=C(C)C | 12.9
COc1cc(O)c(C(=O)O)c(CC(=O)c2cccc(-c3ccc(F)cc3)c2)c1CC=C(C)C | 16
COc1ccc(-c2cccc(C(=O)Cc3c(CC=C(C)C)c(OC)cc(O)c3C(=O)O)c2)c(F)c1 | -0.4
O=C(Nc1ccccc1)c1cc([N+](=O)[O-])ccc1Cl | 10.9
COc1cc(CC(=O)c2cccc(-c3ccccc3Cl)c2)c(C(=O)O)c(O)c1CC=C(C)C | 24.1
COc1cc(CC(=O)c2cccc(C3CC3)c2)c(C(=O)O)c(O)c1CC=C(C)C | 17.7
COc1cc(CC(=O)c2cccc(-c3ccsc3)c2)c(C(=O)O)c(O)c1CC=C(C)C | 7.7

Inquiry: Consider the compound `COc1cc(O)c(C(=O)O)c(CC(=O)c2cccc(-c3cncnc3)c2)c1CC=C(C)C` and give its measured inhibition.
Reply text: 11.5

Inquiry: inhibition lookup needed for `COc1cc(O)c(C(=O)O)c(CC(=O)c2cccc(-c3ccc(C)cc3)c2)c1CC=C(C)C` , thanks.
Reply text: 23.9

Inquiry: What inhibition value was documented for this compound, `COc1cc(CC(=O)c2cccc(-c3cncnc3)c2)c(C(=O)O)c(O)c1CC=C(C)C` ?
Reply text: 4.6

Inquiry: Could you tell me which inhibition is on file for `COc1ccc(-c2cccc(C(=O)Cc3c(CC=C(C)C)c(OC)cc(O)c3C(=O)O)c2)cc1` ?
Reply text: 36.9

Inquiry: // returns reported inhibition for input `COc1cc(O)c(C(=O)O)c(CC(=O)c2cccc(C3CC3)c2)c1CC=C(C)C`
Reply text: 34.6

----------
# Assay comment: Induction of insulin-sensitizing activity in insulin-resistant human HepG2 cells assessed as glucose consumption at 0.1 uM (reference value: 5.83 +/-0.101 mM)
# Type: functional
Decide using Activity: a value greater than or equal to 7 mM is met, a smaller one is not met.

Worked cases, answers included:
Entry smiles | Assigned label
COc1cc(CC(=O)c2cccc(-c3ccsc3)c2)c(C(=O)O)c(O)c1CC=C(C)C | met
COc1cc(O)c(C(=O)O)c(CC(=O)c2cccc(-c3cccnc3)c2)c1CC=C(C)C | not met
COc1cc(CC(=O)c2cccc(C3CC3)c2)c(C(=O)O)c(O)c1CC=C(C)C | not met
COc1cc(CC(=O)c2cccc(-c3ccccc3C(F)(F)F)c2)c(C(=O)O)c(O)c1CC=C(C)C | met
COc1cc(O)c(C(=O)O)c(CC(=O)c2cccc(-c3cncnc3)c2)c1CC=C(C)C | not met
COc1cc(CC(=O)c2cccc(-c3cncnc3)c2)c(C(=O)O)c(O)c1CC=C(C)C | not met
COc1ccc(-c2cccc(C(=O)Cc3cc(OC)c(CC=C(C)C)c(O)c3C(=O)O)c2)cc1 | met
COc1cc(O)c(C(=O)O)c(CC(=O)c2cccc(-c3ccccc3C(F)(F)F)c2)c1CC=C(C)C | met

Inquiry: Please check the record `COc1ccc(-c2cccc(C(=O)Cc3cc(OC)c(CC=C(C)C)c(O)c3C(=O)O)c2)c(F)c1` and state if its Activity is at or above 7 mM.
Reply text: met

Inquiry: Does the compound `COc1cc(O)c(C(=O)O)c(CC(=O)c2cccc(-c3ccc(Cl)cc3)c2)c1CC=C(C)C` have recorded Activity that is 7 mM or more?
Reply text: met

Inquiry: Item `COc1ccc(-c2cccc(C(=O)Cc3c(CC=C(C)C)c(OC)cc(O)c3C(=O)O)c2)cc1` with Activity of 7 mM or above?
Reply text: met

Inquiry: Form field: Activity at least 7 mM? Entry: `CCc1ccc(-c2cccc(C(=O)Cc3cc(OC)c(CC=C(C)C)c(O)c3C(=O)O)c2)cc1`
Reply text: met

Inquiry: Reported Activity at or above 7 mM? `COc1cc(CC(=O)c2cccc(-c3ccc(F)cc3)c2)c(C(=O)O)c(O)c1CC=C(C)C`
Reply text: not met

Inquiry: Assess whether reported Activity for `COc1cc(CC(=O)c2cccc(-c3cccc(C(F)(F)F)c3)c2)c(C(=O)O)c(O)c1CC=C(C)C` sits at 7 mM or higher.
Reply text: met

Inquiry: Could you tell me if the measured Activity of `COc1cc(CC(=O)c2cccc(-c3ccc(C)cc3)c2)c(C(=O)O)c(O)c1CC=C(C)C` reaches 7 mM or more?
Reply text: met

Inquiry: State whether the measured Activity reaches 7 mM, counting equality as reaching it, for `COc1cc(O)c(C(=O)O)c(CC(=O)c2cccc(-c3ccc(F)cc3)c2)c1CC=C(C)C`
Reply text: met

Inquiry: # check: Activity of `COc1cc(O)c(C(=O)O)c(CC(=O)c2cccc(-c3ccccc3Cl)c2)c1CC=C(C)C` is greater than or equal to 7 mM
Reply text: met
